Reported IC50 is given for each of the following compounds.
# Tested on: S6RP serine-240/244 phosphorylation
# Assay Procedure: In vitro phospho-S6 cellular assay
# Format: cell-based
# Condition Label: Homo sapiens; HEK293T/17 cells, 2 hours; read-out: pS6 inhibition value (IC50), activity level

Sample records with IC50:
{"columns": ["Compound", "Experimental Result"],
 "data": [
  ["CCC1COCCN1c1nc(-c2ccc(NC(=O)NC3CC3)cc2)nc2c1C(C)S(=O)(=O)C2 (stereo not drawn)", "< 100 nM"],
  ["C[C@H]1COCCN1c1nc(-c2ccc(NC(=O)NC3CC3)cc2)nc2c1CS(=O)(=O)CC2", "100 to 1000 nM"],
  ["C[C@@H]1COCCN1c1nc(-c2ccc(NC(=O)NC3CC3)cc2)nc2c1[C@H](C)S(=O)(=O)C2", "< 100 nM"]
]}

Enquiry: Return IC50 (reported value) for this compound: C[C@H]1COCCN1c1nc(-c2ccc(NC(=O)NCCCF)cc2)nc2c1CS(=O)(=O)C2
Return: 100 to 1000 nM

Enquiry: Input CCNC(=O)Nc1ccc(-c2nc3c(c(N4CC5CCC(C4)O5)n2)CS(=O)(=O)C3)cc1 , output reported IC50.
Return: < 100 nM

Enquiry: Give me measured IC50, please, for this compound: C[C@H]1COCCN1c1nc(-c2ccc(NC(=O)NCCF)cc2)nc2c1CS(=O)(=O)C2
Return: 100 to 1000 nM

Enquiry: Give IC50 for C[C@H]1COCCN1c1nc(-c2ccc(NC(=O)NCCF)cc2)nc2c1CS(=O)(=O)C2(C)C
Return: < 100 nM

Enquiry: Annotate the compound CC1c2nc(-c3ccc(NC(=O)NC4CC4)cc3)nc(N3CCOC[C@@H]3C)c2CS1(=O)=O (stereo partly drawn) with its measured IC50.
Return: < 100 nM

Enquiry: Determine from records and report IC50 for O=C(NCCO)Nc1ccc(-c2nc3c(c(N4CC5CCC(C4)O5)n2)CS(=O)(=O)C3)cc1
Return: 1000 to 10000 nM

Enquiry: Consider the compound C[C@@H]1COCCN1c1nc(-c2ccc(NC(=O)NC3CC3)cc2)nc2c1CS(=O)(=O)C2(C)C and give its recorded IC50.
Return: < 100 nM

---

# Assayed Target: mTOR (Homo sapiens)
pIC50: −log10 of the molar value.
Measured Property: pIC50

Below, 4 compounds whose answers are already recorded.
{"columns": ["Compound", "pIC50"],
 "data": [
  ["C[C@H]1COCCN1c1nc(-c2ccc(NC(=O)NC3CC3)cc2)nc2c1CS(=O)(=O)CC2", "> 7.00"],
  ["CC[C@H]1COCCN1c1nc(-c2ccc(NC(=O)NC3CC3)cc2)nc2c1C(C)S(=O)(=O)C2 (stereo partly drawn)", "6.00 to 7.00"],
  ["CNC(=O)Nc1ccc(-c2nc3c(c(N4CCOC[C@@H]4C)n2)C(C)S(=O)(=O)C3)cc1 (stereo partly drawn)", "> 7.00"],
  ["O=C(NCCCF)Nc1ccc(-c2nc3c(c(N4CC5CCC(C4)O5)n2)CS(=O)(=O)C3)cc1", "6.00 to 7.00"]
]}

Enquiry: // fetch pIC50 for CNC(=O)Nc1ccc(-c2nc(N3CCOC[C@@H]3C)c3c(n2)C(C)(C)S(=O)(=O)C3)cc1F ; system: mTOR (Homo sapiens)
Return: 6.00 to 7.00

Enquiry: Output reported pIC50 of the compound C[C@@H]1COCCN1c1nc(-c2ccc(NC(=O)NC3CC3)cc2)nc2c1CS(=O)(=O)C2 on mTOR (Homo sapiens).
Return: 6.00 to 7.00

Enquiry: Under mTOR (Homo sapiens), report pIC50 for C[C@@H]1c2c(nc(-c3ccc(NC(=O)NC4CC4)cc3)nc2N2CCOC[C@@H]2C)CS1(=O)=O (single isomer, unassigned)
Return: > 7.00

Enquiry: Enter recorded pIC50 with mTOR (Homo sapiens) for O=C(Nc1ccc(-c2nc3c(c(N4C5CCC4COC5)n2)CS(=O)(=O)C3)cc1)NC1CC1 here.
Return: > 7.00

Enquiry: Quote pIC50 with test system mTOR (Homo sapiens) for CCNC(=O)Nc1ccc(-c2nc3c(c(N4CCOC[C@@H]4C)n2)[C@@H](C)S(=O)(=O)C3)cc1
Return: > 7.00

Enquiry: Retrieve pIC50 on mTOR (Homo sapiens); query CC1c2c(nc(-c3ccc(NC(=O)NC4CC4)cc3)nc2N2C3CCC2COC3)CS1(=O)=O (stereo not drawn)
Return: > 7.00

Enquiry: Find pIC50 for C[C@H]1COCCN1c1nc(-c2ccc(NC(=O)NC3CC3)cc2)nc2c1[C@H](C)S(=O)(=O)C2 (single isomer, unassigned) on mTOR (Homo sapiens) and write it down.
Return: > 7.00

Enquiry: Fill in pIC50 for C[C@@H]1CN(c2nc(-c3ccc(NC(=O)NC4CC4)cc3)nc3c2CS(=O)(=O)C3)C[C@H](C)O1 tested with mTOR (Homo sapiens).
Return: 5.00 to 6.00

Enquiry: Consider the compound CNC(=O)Nc1ccc(-c2nc(N3CCOC[C@@H]3C)c3c(n2)C(C)(C)S(=O)(=O)C3)c(F)c1 tested on mTOR (Homo sapiens); state its pIC50.
Return: > 7.00

Enquiry: Provide pIC50, system mTOR (Homo sapiens), entry C[C@H]1COCCN1c1nc(-c2ccc(NC(=O)NC3CC3)cc2)nc2c1CSC2
Return: > 7.00

Enquiry: Report value: pIC50, system: mTOR (Homo sapiens), compound: C[C@H]1COCCN1c1nc(-c2ccc(NC(=O)NC3CC3)cc2)nc2c1S(=O)(=O)C(C)(C)C2
Return: 6.00 to 7.00

Origin of values: patent US9242993B2
